Every entry's value here was drawn from paper PMC11595719.

Biological target: berovin (apo-berovin) (Beroe abyssicola, UniProt H8ZZK1, K90M/N107S/W103F)
Construct: monomeric
Experiment: Trp fluorescence quenching at […] nm
pKd: −log10 of the molar value.
measurementLabel: pKd

- compoundStructure: "Oc1ccc(Cc2nc3c(Cc4ccccc4)nc(-c4ccc(O)cc4)cn3c2O)cc1"
  measurementLabel: "pKd"
  reading: 5.18

###

Target: UniProtKB H8ZZK1
Sequence (H8ZZK1 1-208): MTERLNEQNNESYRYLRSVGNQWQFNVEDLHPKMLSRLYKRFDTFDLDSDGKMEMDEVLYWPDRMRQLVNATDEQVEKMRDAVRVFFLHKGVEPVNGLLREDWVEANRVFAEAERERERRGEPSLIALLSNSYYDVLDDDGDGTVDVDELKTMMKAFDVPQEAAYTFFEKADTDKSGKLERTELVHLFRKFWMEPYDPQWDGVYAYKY

- compound: "Oc1ccc(Cc2nc3c(Cc4ccccc4)nc(-c4ccc(O)cc4)cn3c2O)cc1 [coelenterazine]"
  measurementTarget: "UniProtKB H8ZZK1"
  Kd [µM]: 4.72
